experimental target: drTRPM2 (TRPM2 from zebrafish) (Danio rerio)
Construct: isolated MHR1/2 domain, residues 1-419 of drTRPM2, N-terminal His6-tag
Sequence (A0A0R4IMY7 1-419): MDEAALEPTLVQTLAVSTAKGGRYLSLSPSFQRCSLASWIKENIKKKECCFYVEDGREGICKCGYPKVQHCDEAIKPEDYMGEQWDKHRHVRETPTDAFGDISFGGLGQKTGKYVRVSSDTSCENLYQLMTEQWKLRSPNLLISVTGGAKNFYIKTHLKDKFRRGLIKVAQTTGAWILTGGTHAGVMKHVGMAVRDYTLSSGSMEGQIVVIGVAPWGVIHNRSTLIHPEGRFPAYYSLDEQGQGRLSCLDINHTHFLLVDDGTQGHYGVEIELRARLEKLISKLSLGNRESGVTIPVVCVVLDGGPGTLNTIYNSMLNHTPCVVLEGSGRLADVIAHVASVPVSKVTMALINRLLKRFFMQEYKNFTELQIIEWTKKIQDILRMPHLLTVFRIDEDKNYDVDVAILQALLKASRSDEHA
assay method text: isothermal titration calorimetry (ITC), purified domain, […] °C
assay endpoint: pKd
// pKd is dimensionless: -log10 of concentration (M)

- compound: "Nc1ncnc2c1nc(Br)n2[C@@H]1O[C@H](COP(=O)(O)OP(=O)(O)OC[C@H]2OC(O)[C@H](O)[C@@H]2O)[C@@H](O)[C@H]1O (some centres unmarked) [8-Br-ADPR]"
  experimental target: "drTRPM2 (TRPM2 from zebrafish) (Danio rerio)"
  assay endpoint: "pKd"
  numeric result: 5.85

Please find the next compound below.
Q: Would you kindly share the measured pKd for Nc1ncnc2c1ncn2[C@@H]1O[C@H](COP(=O)(O)OP(=O)(O)OC[C@H]2OC(O)[C@H](O)[C@@H]2O)[C@@H](O)[C@H]1O (some centres unmarked) [ADPR] ?
Result: 5.66
